The entries below come with measured selectivity ratio at 48 h values attached.
# METHOD_NOTES: Ratio of GI50 for antiproliferative activity against human hTERT-BJ cells incubated for 48 hrs by SRB assay to GI50 for antiproliferative activity against human T47D cells incubated for 48 hrs by SRB assay
# Type: toxicity, cell-based
# PARTICULARS: hTERT-BJ cells versus T47D cells, read-out: RatioGI50

MOLECULE | selectivity ratio at 48 h
C[C@]1(O)CC[C@H]2[C@H]3[C@H](O[C@]4([C@@H]5C[C@]6(C)C(=O)O[C@H]5C[C@@]6(C)O)CC[C@@]31O4)[C@@H](O)[C@]13O[C@H]1C=CC(=O)[C@]23C | 2 to 10
CC1=C(C)C(=O)O[C@@H]([C@](C)(O)[C@H]2CC[C@H]3[C@@H]4[C@@H](O)C=C5[C@@H](O)C=CC(=O)[C@]5(C)[C@H]4CC[C@]23C)C1 | 2 to 10
CC1=C(C)C(=O)O[C@@H]([C@]2(C)OC(O)[C@]34CC[C@H]5[C@@H]([C@H](O)C=C6CC=CC(=O)[C@@]65C)[C@@H]3CC[C@H]24)C1 (stereo partly drawn) | 2 to 10

====

# METHOD_NOTES: Antiproliferative activity against human hTERT-BJ cells incubated for 48 hrs by SRB assay
# Format: cell-based
OBSERVATION_TYPE: GI50 at 48 h

COMPOUND | OBSERVATION_TYPE | OBSERVED_RESULT
C[C@]12C(=O)C=CC=C1[C@H](O)[C@H]1O[C@]3([C@@H]4C[C@]5(C)C(=O)O[C@H]4C[C@@]5(C)O)CC[C@@]4(O3)[C@H]1[C@@H]2CC[C@]4(C)O | GI50 at 48 h | 5.3 µM
CC1=C(C)C(=O)O[C@@H]([C@](C)(O)[C@H]2CC[C@H]3[C@@H]4[C@@H](O)C=C5[C@@H](O)C=CC(=O)[C@]5(C)[C@H]4CC[C@]23C)C1 | GI50 at 48 h | > 10 µM
CC1=C(C)C(=O)O[C@@H]([C@]2(C)OC(O)[C@]34CC[C@H]5[C@@H]([C@@H](O)C=C6[C@@H](O)C=CC(=O)[C@@]65C)[C@@H]3CC[C@H]24)C1 (mixture of isomers) | GI50 at 48 h | > 10 µM
C[C@]12C(=O)C=CCC1=C[C@H]1O[C@]3([C@@H]4C[C@]5(C)C(=O)O[C@H]4C[C@@]5(C)O)CC[C@@]4(O3)[C@H]1[C@@H]2CC[C@]4(C)O | GI50 at 48 h | > 10 µM

====

// reported GI50 for each item listed
# Test system: T47D
# METHOD_NOTES: Antiproliferative activity against human T47D cells incubated for 48 hrs by SRB assay
# Assay type: functional
OBSERVATION_TYPE: GI50

MOLECULE | OBSERVED_RESULT
CC1=C(C)C(=O)O[C@@H]([C@]2(C)OC(O)[C@]34CC[C@H]5[C@@H]([C@H](O)C=C6CC=CC(=O)[C@@]65C)[C@@H]3CC[C@H]24)C1 (stereo not given in full) | > 10 µM
CCO[C@@H]1O[C@@](C)([C@H]2CC(C)=C(C)C(=O)O2)[C@H]2CC[C@H]3[C@@H]4[C@@H](O)C=C5[C@@H](O)C=CC(=O)[C@]5(C)[C@H]4CC[C@]123 | 4.7 µM
CC1=C(C)C(=O)O[C@@H]([C@]2(C)OC(O)[C@@]34CC[C@H]5[C@@H](CC=C6CC=CC(=O)[C@@]65C)[C@](O)(CC[C@H]23)O4)C1 (stereo not given in full) | > 10 µM
CC1=C(CO)C(=O)O[C@@H]([C@]2(C)OC(O)[C@@]34CC[C@H]5[C@@H](CC=C6CC=CC(=O)[C@@]65C)[C@](O)(CC[C@H]23)O4)C1 (stereo not given in full) | > 10 µM
CC1=C(C)C(=O)O[C@@H]([C@](C)(O)[C@H]2CC[C@H]3[C@@H]4[C@@H](O)C=C5[C@@H](O)C=CC(=O)[C@]5(C)[C@H]4CC[C@]23C)C1 | > 10 µM
